- Test target: protein farnesyltransferase (Rattus norvegicus, UniProt Q02293+Q04631)
- Construct: The enzyme is purified according to Reiss, Y., et al., Cell, 62: 81-88 (1990), utilizing steps one through three; from tissue; host or cells: rat brain
- Sequence (Q02293 whole entry, one chain of several): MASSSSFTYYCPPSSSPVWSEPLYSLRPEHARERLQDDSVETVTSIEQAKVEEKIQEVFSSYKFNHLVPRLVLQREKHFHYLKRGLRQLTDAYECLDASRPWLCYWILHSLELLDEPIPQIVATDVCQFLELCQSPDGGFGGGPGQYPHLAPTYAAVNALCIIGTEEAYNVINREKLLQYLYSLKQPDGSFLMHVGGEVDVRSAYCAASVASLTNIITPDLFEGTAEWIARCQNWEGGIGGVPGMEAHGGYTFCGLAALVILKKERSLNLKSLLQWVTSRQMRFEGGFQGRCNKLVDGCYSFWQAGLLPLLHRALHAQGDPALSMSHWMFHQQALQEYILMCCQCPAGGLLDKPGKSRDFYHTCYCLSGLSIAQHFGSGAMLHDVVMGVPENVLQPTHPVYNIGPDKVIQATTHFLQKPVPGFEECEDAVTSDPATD
- Measurement description: Inhibition of farnesyltransferase (scintillation proximity assay, rat brain enzyme, biotin-K Ras B fragment substrate)
- Assay type: biochemical
- Measurement setup: 1 × 10^-6 M (Table 2)
Observable: % inhibition of farnesyltransferase at 1 × 10^-6 M

{"Smiles record": "CSCC[C@H](NC(=O)c1ccc(COC2CCN(Cc3ccccc3)CC2)cc1-c1ccccc1C)C(=O)O", "Test target": "protein farnesyltransferase (Rattus norvegicus, UniProt Q02293+Q04631)", "Endpoint value": "90%"}
{"Smiles record": "CSCC[C@H](NC(=O)c1ccc(CN(C)CCc2ccccc2)cc1-c1ccccc1C)C(=O)O", "Test target": "protein farnesyltransferase (Rattus norvegicus, UniProt Q02293+Q04631)", "Endpoint value": "95%"}
{"Smiles record": "CSCC[C@H](NC(=O)c1ccc(NC(=O)C2=C(C(F)(F)F)C=CNC2)cc1-c1ccccc1)C(=O)O", "Test target": "protein farnesyltransferase (Rattus norvegicus, UniProt Q02293+Q04631)", "Endpoint value": "98%"}
